Property: pIC50; scope: individual compounds
# tgt: recombinant human arginase 1 (Homo sapiens, UniProt P05089)
# Sequence (P05089 whole entry): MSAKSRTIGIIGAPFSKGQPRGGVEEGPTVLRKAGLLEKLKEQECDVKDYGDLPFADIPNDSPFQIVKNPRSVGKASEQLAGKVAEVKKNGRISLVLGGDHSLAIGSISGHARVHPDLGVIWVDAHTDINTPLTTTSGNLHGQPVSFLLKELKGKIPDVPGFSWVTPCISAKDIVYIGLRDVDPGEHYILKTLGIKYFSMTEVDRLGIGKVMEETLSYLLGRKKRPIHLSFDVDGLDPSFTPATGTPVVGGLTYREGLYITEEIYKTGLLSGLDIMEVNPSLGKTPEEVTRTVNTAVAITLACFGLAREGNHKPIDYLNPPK
# assay.details: Arginase inhibitory activity test, enzymatic assay based on urea measurement (Arg 1)
pIC50: −log10 of the molar value.

Below, each entry is followed by its recorded pIC50 result.
Query :: Endpoint output: pIC50 of COC(=O)[C@@H](N)CNS(=O)(=O)N1C[C@H](CCCB(O)O)[C@](N)(C(=O)O)C1 (racemic) [Example 55] . Value?
Result :: > 7.00

Query :: Then this compound: C[C@H](CN)NS(=O)(=O)N1C[C@H](CCCB(O)O)[C@](N)(C(=O)O)C1 (racemic) [Example 16]
Result :: > 7.00

Query :: Subsequent entry: NCCNc1c(N2C[C@H](CCCB(O)O)[C@](N)(C(=O)O)C2)c(=O)c1=O [Example 28]
Result :: > 7.00

Query :: Could you do the same for CN(C1CNC1)S(=O)(=O)N1C[C@H](CCCB(O)O)[C@](N)(C(=O)O)C1 (racemic) [Example 42] , please?
Result :: > 7.00

***
Query :: Please report the recorded pIC50 for N[C@@]1(C(=O)O)CN(S(=O)(=O)Nc2cc[nH]n2)C[C@@H]1CCCB(O)O (racemic) [Example 6] .
Result :: 6.00 to 7.00

Query :: Moving on to CC(C)(O)CNS(=O)(=O)N1C[C@H](CCCB(O)O)[C@](N)(C(=O)O)C1 (racemic) [Example 9]
Result :: 6.00 to 7.00

Query :: Please answer likewise for C[C@@H](N)C(=O)NS(=O)(=O)N1C[C@H](CCCB(O)O)[C@](N)(C(=O)O)C1 (racemic) [Example 35]
Result :: 6.00 to 7.00

* * *

# tgt: recombinant human arginase 1 (Homo sapiens, UniProt P05089)
# assay.details: Arginase inhibitory activity test, enzymatic assay based on urea measurement (Arg 1)
measured.metric: IC50

Check out these entries, answers already filled in.
Query :: What value of IC50 has been recorded for this entry: CC(C)C(NS(=O)(=O)N1CC(CCCB(O)O)C(N)(C(=O)O)C1)C(=O)O (racemic)
Result :: 1 to 10 µM

Query :: Okay, and C[C@@H](N)CNS(=O)(=O)N1C[C@H](CCCB(O)O)[C@](N)(C(=O)O)C1 (racemic) ?
Result :: < 0.1 µM

Query :: Entry N[C@@]1(C(=O)O)CN(S(=O)(=O)N2CCNCC2)C[C@@H]1CCCB(O)O (racemic) please
Result :: < 0.1 µM

Further cases:
Query :: I am curious: what IC50 value has been reported for CN(CCN)c1c(N2C[C@H](CCCB(O)O)[C@](N)(C(=O)O)C2)c(=O)c1=O ?
Result :: < 0.1 µM

* * *

# tgt: recombinant human arginase 1 (Homo sapiens, UniProt P05089)
# assay.details: Arginase inhibitory activity test, enzymatic assay based on urea measurement (Arg 1);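 further: enzyme incubated with L-arginine substrate and compound at 37 °C for 120 min, urea product detected colorimetrically by absorbance at 450 nm, background from wells lacking enzyme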
measured.metric: IC50

Query :: So what's the measured IC50 for this one? CNCCNS(=O)(=O)N1C[C@H](CCCB(O)O)[C@](N)(C(=O)O)C1 (racemic) [Example 46]
Result :: 100 to 1000 nM

Query :: Would you mind doing NC1CC(NS(=O)(=O)N2C[C@H](CCCB(O)O)[C@](N)(C(=O)O)C2)C1 (mixture of isomers) [Example 24] as well?
Result :: < 100 nM

Query :: Same lookup for CC1(C)[C@H]2C[C@@H]3OB(CCC[C@H]4CN(S(=O)(=O)NCCN)C[C@@]4(N)C(=O)O)O[C@]3(C)[C@@H]1C2 (racemic) [Example 36] , please.
Result :: < 100 nM

# ---- query compound ----
Query :: Data request, read-out IC50, for NCCCNS(=O)(=O)N1C[C@H](CCCB(O)O)[C@](N)(C(=O)O)C1 (racemic) [Example 21]
Result :: 100 to 1000 nM
